test: Quantitative High-Throughput drug screen in 47 multiple myeloma cell lines against the NCATS MIPE library collection: NCIH929_DSMZ cell viability assay (AID 1918978); details: NCI-H929 myeloma viability, CellTiter-Glo ATP, 48 h; series mostly up to 45.8 µM; also: nearly all actives have a fitted effect of over 35% in size
Records with an inconclusive call do not appear. Active and inactive are the calls of the source. Calls follow the shape of the dose curve; as a rule, active = well fitted cell-killing curve with a large enough effect; inconclusive = small, poorly fitted or top-dose-only effect; inactive = no such curve, though single readings can be large or run the other way.
Please reply with one of these outcomes: yes (1) for active, no (0) for inactive

Asked: Recorded call for O=C(CN1C(=O)C2(CCCC2)NC[C@H]1c1cc(F)cc(F)c1)Nc1ccc2c(c1)C[C@@]1(C2)C(=O)Nc2ncccc21 ?
Given back: no (0)

Asked: Recorded call for COc1cc(C[C@@H](CO)[C@H](CO)Cc2ccc(O)c(OC)c2)ccc1O ?
Given back: yes (1)

Asked: Recorded call for CC1=C(C(=O)Nc2cc3cn[nH]c3cc2F)C(c2ccc(Cl)cc2F)N=C(c2ccnc(Cl)c2)N1 (configuration not stated) ?
Given back: yes (1)

Asked: Recorded call for COc1cc(C(C)C)c(Oc2cnc(NC(CO)CO)nc2N)cc1I ?
Given back: no (0)

Asked: Recorded call for O=C(O)c1ccc(Nc2ncc3c(n2)-c2ccc(Cl)cc2C(c2c(F)cccc2F)=NC3)cc1 ?
Given back: yes (1)

Asked: Recorded call for C[C@H](NCc1ccc(OCc2cccc(F)c2)cc1)C(N)=O ?
Given back: yes (1)

Asked: Recorded call for O=c1ccn([C@@H]2O[C@H](CO)[C@H](O)[C@@H]2F)c(=O)[nH]1 ?
Given back: yes (1)

----------
experiment: qHTS of pediatric cancer cell lines to identify multiple opportunities for drug repurposing: Primary screen for LAN-5 cells (AID 1347100); details: LAN-5 neuroblastoma viability, CellTiter-Glo luminescence, 48 h; series mostly up to 46 µM; also: potency is read from the fitted curve at half-maximal effect
Records with an inconclusive call do not appear. Calls of active or inactive are those of the source. Calls come from the whole dose curve; as a rule, active = well fitted cell-killing curve with a large enough effect; inconclusive = small, poorly fitted or top-dose-only effect; inactive = no such curve, though single readings can be large or run the other way.
READOUT KIND: Potency

# CPD SMILES, RESULT
rows = [
    ("CCC[C@H]1C[C@H](C(=O)N[C@@H]([C@@H]2O[C@@H](SC)[C@@H](O)[C@@H](O)[C@@H]2O)[C@H](C)Cl)N(C)C1", "inactive"),
    ("CNC(=O)c1ccc(Nc2cc(Nc3ccccc3S(=O)(=O)C(C)C)c3cc[nH]c3n2)nc1", "93.5 nM (active)"),
    ("COc1cc(OC)c(NC(=O)Nc2cc(C)on2)cc1Cl", "inactive"),
]

----------
test: qHTS assay for cell viability of HEK293 cells (AID 743288); conditions: ATP luminescence (CellTiter-Glo), 18 h, stronger effect = lower value; also: % is scaled to controls: 0 for no effect and ±100 for the full control effect; nearly all actives have a fitted effect of over 50% in size
Inconclusive results are not listed.
READOUT KIND: max response (%)
Lab book: enter the figure in %, no units written.

Please fill in: max response reported for C[C@]12CC[C@@H]3c4ccc(O)cc4CC[C@H]3[C@H]1CC[C@H]2O = -7.02

Please fill in: max response reported for Cc1cc(O)c2c(c1)C(=O)c1cccc(O)c1C2=O = -7.7

Please fill in: max response reported for O=C1c2cccc(O)c2C(=O)c2c(O)cc(CO)cc21 = -3.37

----------
Please provide measured parasite growth, % of control (lower = inhibition) for the entries that follow.
assay: qHTS profiling of the MIPE4 collection as inhibitors of Plasmodium falciparum (DD2) proliferation (Rep 2) (AID 743346); settings: P. falciparum Dd2 in erythrocytes, SYBR Green DNA, 72 h; at 28.5 µM (top of the series) unless noted
Lab book: enter the figure in %, no units written.

Please fill in: parasite growth, % of control (lower = inhibition) reported for CC(=O)SCC(Cc1ccccc1)C(=O)NCC(=O)OCc1ccccc1 (stereo unspecified) = 60.4

Please fill in: parasite growth, % of control (lower = inhibition) reported for CC(=O)[C@]1(O)Cc2c(O)c3c(c(O)c2[C@@H](O[C@H]2C[C@H](N)[C@@H](O)[C@H](C)O2)C1)C(=O)c1ccccc1C3=O = 49

Please fill in: parasite growth, % of control (lower = inhibition) reported for O=C(O)c1ccc(Nc2ncc3c(n2)-c2ccc(Cl)cc2C(c2c(F)cccc2F)=NC3)cc1 = 44

Please fill in: parasite growth, % of control (lower = inhibition) reported for COc1cc(O)c2c(c1)C1OC1C[C@H](O)[C@H](O)C(=O)C=CC[C@H](C)OC2=O (stereo partly specified) = 6.84

Please fill in: parasite growth, % of control (lower = inhibition) reported for CC(=O)OCC(=O)[C@@]12N=C(C)O[C@H]1C[C@H]1[C@@H]3CCC4=CC(=O)C=C[C@]4(C)[C@@H]3[C@@H](O)C[C@@]12C = 68.3

Please fill in: parasite growth, % of control (lower = inhibition) reported for O=C(Nc1cc2cc[nH]c2cn1)c1ccccc1 = 39.2

Please fill in: parasite growth, % of control (lower = inhibition) reported for CCNC(=O)c1cc2c(-c3cc(OCCN4CCCC4)c(Cl)cc3Cl)nc(N)nc2s1 = 25.1

Please fill in: parasite growth, % of control (lower = inhibition) reported for C#CCC(Cc1cnc2nc(N)nc(N)c2n1)c1ccc(C(=O)N[C@@H](CCC(=O)O)C(=O)O)cc1 (stereo partly specified) = 9.31

Please fill in: parasite growth, % of control (lower = inhibition) reported for O=c1ccn([C@@H]2O[C@H](CO)[C@H](O)[C@@H]2F)c(=O)[nH]1 = 107

Please fill in: parasite growth, % of control (lower = inhibition) reported for CCn1c(=O)c2c(nc(C=Cc3ccc(OC)c(OC)c3)n2C)n(CC)c1=O = 34.2

Please fill in: parasite growth, % of control (lower = inhibition) reported for CCc1cnn2c(NCc3ccc[n+]([O-])c3)cc(N3CCCC[C@@H]3CCO)nc12 = 12.6

Please fill in: parasite growth, % of control (lower = inhibition) reported for CCCCOc1ccc(C(=O)Nc2ccc(F)cc2F)cc1 = 174

Please fill in: parasite growth, % of control (lower = inhibition) reported for COc1ccc(S(=O)(=O)Nc2cc(-c3c(O)ccc4ccccc34)c(O)c3ccccc23)cc1 = 23.7

Please fill in: parasite growth, % of control (lower = inhibition) reported for COc1ccc(Nc2nccc(NCCO)n2)cc1 = 83.3

Please fill in: parasite growth, % of control (lower = inhibition) reported for O=C(c1ccc(F)cc1)N1CCC[C@H](c2nc(-c3ccc(F)cc3)no2)C1 = 70.9
